# Test system: OVCAR-3 ovarian
# method: NCI-60 one-dose screen, 48 h
# assay_setup: 10 µM unless noted
Compounds without any hit were thinned out: in the full panel of roughly 83,000, 20% have a hit. Calls of active or inactive are those of the source. How the source made its calls: active means growth percent below 10; inactive means the rest.
Respond using exactly one of the listed classes: Yes = active, No = inactive

C=CCc1cc(OC)c(O)c(OC)c1; No
COc1cccc2c1Cc1ccccc1-2; No
COc1cccc(C(=O)NNC(=O)c2cccc3ccccc23)c1; No

Ask: Per the records of this test, what outcome belongs to `Nc1ccc(F)cc1F` ?
Reply: No

Ask: Lab log entry: Nc1ncnc2c1ncn2C1OC(CO)C2OC21 (centres undefined) — outcome as called in the assay?
Reply: No

Ask: Please state the recorded outcome for this compound: `CCC(/C=C\C(C)=O)CC`
Reply: No

Ask: # outcome recorded in this test, key = `N#Cc1ccc(OC(=O)Nc2c(Cl)cc(Cl)cc2Cl)cc1`
Reply: No

Ask: Each compound tested received a call. Report the one for NC(=S)c1c(N)n(C2OC(CO)C(O)C2O)c2ncnc(N)c12 (centres undefined) .
Reply: Yes
